Target: α-glycosidase
Test: α-Glycosidase inhibition (p-NPG substrate)
Details: n: 3, Lineweaver–Burk; read-out: Ki α-Gly
Observed property: pKi
In simple prose, pKi is minus the logarithm base ten of a concentration in moles per litre.

Note pKi for the compound shown: O=C(O)[C@H]1O[C@@H](Oc2cc3oc(-c4ccccc4)cc(=O)c3c(O)c2O)[C@H](O)[C@@H](O)[C@@H]1O [Baicalin hydrate, baicalin hydrate] 7.57

---

Biological target: acetylcholinesterase (AChE) (Electrophorus electricus)
Sequence (O42275 24-633): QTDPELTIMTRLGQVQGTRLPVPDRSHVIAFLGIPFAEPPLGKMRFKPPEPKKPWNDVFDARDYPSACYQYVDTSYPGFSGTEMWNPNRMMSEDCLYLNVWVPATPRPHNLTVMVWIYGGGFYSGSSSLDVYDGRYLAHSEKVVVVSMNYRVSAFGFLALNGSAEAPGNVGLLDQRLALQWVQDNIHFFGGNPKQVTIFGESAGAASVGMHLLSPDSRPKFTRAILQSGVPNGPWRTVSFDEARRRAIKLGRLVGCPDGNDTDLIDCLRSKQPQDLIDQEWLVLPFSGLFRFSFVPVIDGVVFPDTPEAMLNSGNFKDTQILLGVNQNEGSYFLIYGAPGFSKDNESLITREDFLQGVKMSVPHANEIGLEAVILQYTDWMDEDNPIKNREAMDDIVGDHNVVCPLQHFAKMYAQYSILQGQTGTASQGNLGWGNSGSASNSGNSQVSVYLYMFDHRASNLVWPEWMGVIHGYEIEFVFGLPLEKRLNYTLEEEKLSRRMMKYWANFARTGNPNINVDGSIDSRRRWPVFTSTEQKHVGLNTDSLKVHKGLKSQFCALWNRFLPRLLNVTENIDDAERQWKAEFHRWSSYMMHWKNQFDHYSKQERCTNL
Observed property: pIC50
Conceptually, pIC50 converts a concentration in mol/L into minus its log10.

Please look at this molecule and report its pIC50: O=C(O)[C@H]1O[C@@H](Oc2cc3oc(-c4ccccc4)cc(=O)c3c(O)c2O)[C@H](O)[C@@H](O)[C@@H]1O [Baicalin hydrate, baicalin hydrate] 7.83

---

Task for the reader: assign each of the following molecules its reported ABTS•+ scavenging IC50.
Experiment: ABTS radical scavenging
Numbers only; they are read as µg/mL.

Answer with the recorded ABTS•+ scavenging IC50 for the molecule listed here: O=C(O)[C@H]1O[C@@H](Oc2cc3oc(-c4ccccc4)cc(=O)c3c(O)c2O)[C@H](O)[C@@H](O)[C@@H]1O [Baicalin hydrate, baicalin hydrate] 38.37

Fill in reported ABTS•+ scavenging IC50 for this entry: Cc1c(C)c2c(c(C)c1O)CCC(C)(C(=O)O)O2 (centres unmarked) 6.16

Please give measured ABTS•+ scavenging IC50 of the following entry: Cc1c(C)c2c(c(C)c1O)CC[C@@](C)(CCC[C@H](C)CCC[C@H](C)CCCC(C)C)O2 8.37

Annotate the molecule Cc1cc(C(C)(C)C)c(O)c(C(C)(C)C)c1 [BHT, butylated hydroxytoluene] with its measured ABTS•+ scavenging IC50. 6.99

Item COc1ccc(O)c(C(C)(C)C)c1 [BHA, butylated hydroxyanisole] : provide ABTS•+ scavenging IC50 5.07

---

Biological target: α-glycosidase
Assay: α-Glycosidase inhibition (p-NPG substrate)
Observed property: pIC50
Convention used: pIC50 is expressed as -log10 of the molar concentration.

Name the recorded pIC50 of the item O=C(O)[C@H]1O[C@@H](Oc2cc3oc(-c4ccccc4)cc(=O)c3c(O)c2O)[C@H](O)[C@@H](O)[C@@H]1O [Baicalin hydrate, baicalin hydrate] in your answer. 7.61

---

Biological target: butyrylcholinesterase (BChE) (Equus caballus, UniProt P81908)
Construct: BChE was purified from equine serum
Sequence (P81908 whole entry): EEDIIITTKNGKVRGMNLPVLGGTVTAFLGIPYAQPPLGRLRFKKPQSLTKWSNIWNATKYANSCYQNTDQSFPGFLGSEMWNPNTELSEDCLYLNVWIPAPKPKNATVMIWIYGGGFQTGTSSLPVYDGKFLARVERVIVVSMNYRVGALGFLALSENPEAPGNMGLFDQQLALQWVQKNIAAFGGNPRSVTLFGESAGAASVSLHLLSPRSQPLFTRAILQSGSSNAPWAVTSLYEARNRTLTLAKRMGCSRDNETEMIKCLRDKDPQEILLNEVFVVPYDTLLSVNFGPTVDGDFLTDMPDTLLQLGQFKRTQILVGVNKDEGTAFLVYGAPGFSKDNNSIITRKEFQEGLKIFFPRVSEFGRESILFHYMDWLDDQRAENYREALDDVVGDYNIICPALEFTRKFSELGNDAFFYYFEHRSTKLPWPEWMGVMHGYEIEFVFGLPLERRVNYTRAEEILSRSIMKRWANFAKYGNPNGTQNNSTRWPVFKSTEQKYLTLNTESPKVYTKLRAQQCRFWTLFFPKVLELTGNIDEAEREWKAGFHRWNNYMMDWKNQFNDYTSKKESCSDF
Assay: biochemical
Conditions: n: 3, Lineweaver–Burk
Observed property: pKi
The read-out pKi is expressed as -log10 of concentration in moles per litre.

For the molecule O=C(O)[C@H]1O[C@@H](Oc2cc3oc(-c4ccccc4)cc(=O)c3c(O)c2O)[C@H](O)[C@@H](O)[C@@H]1O [Baicalin hydrate, baicalin hydrate] , give its measured pKi value. 8.46
